- System: HEK293T
- experiment: median enrichment of reporter reads in eGFP-reduced (low/intermediate) vs eGFP-high sorted cells (eGFP-extension fusion abundance) (ratio); higher = stronger loss of eGFP-fusion protein abundance (more destabilising extension)

| macromolecule-sequence | median enrichment |
| --- | --- |
| YNIRKKATSMVINGRKAGELDSAVLLTGELWSSAPVYGPCRLVGWQMLA [DPPA4] | 10.4 |
| WAAAARPSGTPASPGGALGQVPSGRTTPGPQGPRPAATLVVAASRSAFGRPLGVAGAARRVQVEVPVPGPQRA [B3GALT6] | 8.24 |
| LVLIPTFPCDLGCRCSCCKMEANLTGVL [ADD2] | 2.88 |
| RCPGDVTDSWQSHGPRLPKSVCWQLFP [S100P] | 8.26 |
| LLCKEYGIAKISLVANISGKVHIFILNSHSFEL [MYNN] | 4.26 |
| CAAQTEAQAQGRNLEQGHFGHSRTGERQLYFSLGQLQRVGQALMGSDCQSDAVGPRQRKAGRRGARTFSPHCPFPFSGEHRRL [C16orf58] | 4.54 |
| LRICRRFPFMKH [CUL4A] | 8.83 |
| WVSAVLGTPAHSTLLEYLFPNATSVCFFLFPQSLSVSEPWAL [LALBA] | 10.8 |
| YGDNSPVSKPGCQIQ [KIR3DL2] | 3.37 |
| YGPVGPAAVLHPTPLTPASCCK [WDR13] | 6.81 |

---

- System: HEK293T
- experiment: median enrichment of reporter reads in eGFP-reduced (low/intermediate) vs eGFP-high sorted cells (eGFP-extension fusion abundance) (ratio); higher = stronger loss of eGFP-fusion protein abundance (more destabilising extension)

| macromolecule-sequence | median enrichment |
| --- | --- |
| LLQGSKLQR [OR7A5] | 10.4 |
| LECRSAGRREE [CNPY1] | 12.4 |
| WAPSCLSRDPGTPPARTLGLSLPRAPPASVDWRVVLPLPRNQPQPR [SLC9A3R2] | 18.7 |
| RDSRTKSLCMKLPTMNVMMLYTKVTRQLSLSGFRSVFGTSLSSTYSAHGNYKLYISFPIVFQNVFSTEHA [RUFY2] | 8.53 |
| YDGGQIKVLAFRCL [KCNMB3] | 9.29 |
| QQQYYRGLNNTTKSIWIA [NCAM2] | 25 |
| LAAGVAMMGWSSLGQGVLGPTPTPPPRHHFPSRFLRLDLGSPLPVMHSCPGPTSPSLTSLELWPPRKGPIQPRLFTEVVLFMK [SCN1B] | 4.89 |
| GGQCLPAPPLASSSAPRVPSVDPIRPAMASYSKMV [ACO2] | 0.291 |
| LAVGAHHLPDSQRENNLAKPIFDTGTFSSQFSLFSQKMI [C1orf105] | 12.7 |
| STARIKNMFPCLSDTSLLDEARKIYMKILKIHIADFMEWTSCISTEKQQHNNTKILGTLK [CDKN1B] | 38.1 |

---

- Tested on: HEK293T
- experiment: median enrichment of reporter reads in eGFP-reduced (low/intermediate) vs eGFP-high sorted cells (eGFP-extension fusion abundance) (ratio); higher = stronger loss of eGFP-fusion protein abundance (more destabilising extension)
measured-property: median enrichment

| macromolecule-sequence | measured-property | value-observed |
| --- | --- | --- |
| EPWPWAPPQGRASRNGDSPGTACPQRGGGHSWAPESLRVLPTEPLGWEGAGGLARTPTFASSSSCPAGRAPPCMMGKAILPLP [SCN1B] | median enrichment | 2.5 |
| YLKKTVLSAMTLYIKGVLFC [PLAAT3] | median enrichment | 13.8 |
| YALDKNLNRKNNSKAYLMKQ [CYLC2] | median enrichment | 2.34 |
| YDHSGQDHSGHGHGHSHGGHGHSH [S100A9] | median enrichment | 0.275 |
| QSQEPSSLI [CNDP1] | median enrichment | 0.195 |
| CLGPGRATGSSQAAARMLISKRCWSLPS [ZBTB39] | median enrichment | 30.1 |
| SVAHSGKGVLCEHVEA [GATC] | median enrichment | 0.756 |
| RVFLGIVFCSCFSVLGMGPGPDTPSPPLWPWPLKLQTQVPILFSPSNAPPNLQPPCLQLPGPGRALVPSLGLIFSLNSTDQLP [JUP] | median enrichment | 7.92 |
| REDHGLSVPQSQLPDG [TBC1D10C] | median enrichment | 1.36 |
| SDQAVLEDRQIYTPHTHTTYTTHTRSHPLTHTLHRLLPYSWTFI [BMP4] | median enrichment | 9.46 |
| APLGLEFATGRILQRQVVPGPLLHPFSRRPCQRLHPVVNLVWRQRLRGWTSIVGQGLTLQGFCSWLWTPENPLLPSPNTRFLT [FAM110A] | median enrichment | 5.18 |

---

- Tested on: HEK293T;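 also: lentiviral eGFP-IRES-mCherry reporter pool sorted by FACS 96 h post-transduction, gated on mCherry-high cells, Illumina read counts normalized per million, median across four biological replicates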
- experiment: median enrichment of reporter reads in eGFP-reduced (low/intermediate) vs eGFP-high sorted cells (eGFP-extension fusion abundance) (ratio); higher = stronger loss of eGFP-fusion protein abundance (more destabilising extension)
Recorded median enrichment values for a group of substances are listed next.

| substance | median enrichment |
| --- | --- |
| SRPEVQATLASGTPPRL [RTP5] | 0.536 |
| WGWRQLSSRSLGFAALAAVTRNCPGLGGELGGP [ACP7] | 8.55 |
| YASRRRRRRGRAAGGTAQATQGRPLRPGGQGGRPASGDRLPPGLWQDVPSEGYFEEPPGPGDREAPVSSMNALPRTQARASGV [MSANTD1] | 1.01 |
| YPGSFYGHE [ZNF700] | 0.482 |
| WPFSWATLQSLPPFGR [ZNRD1] | 6.12 |
| WPPPAPTRPRRALSIS [SLCO4A1] | 9.47 |
| PGCLPCLPRPALVAPTALTVNPEAGSPANLWAESGESWWMRLRRRQEHLETGASWTGTLPLPGHRSSGGSNLRLNTRHPCSQK [TMEM91] | 3.37 |
| LLLLLLL [Leu07] | 12.7 |
| RESSCILENTIPDFPQTALHQYNCISSFYIVQ [SCRG1] | 13.8 |
| YLEQMETPWGAGSGSPAPSQTLQCQKQQQNETQPPPTTATTRRMIQQVFLKN [GRIA1] | 2.38 |
| YLTLPIS [OR5AS1] | 15.4 |
| SKWADE [PLPP5] | 0.25 |
| WSLRWSFVTARFARHLPGWLVLG [ARHGEF26] | 15.8 |
| SALELLNLCPWGFHPNQCQGPPLPPSK [ACY1] | 2 |
| LLLLLL [Leu06] | 6.86 |
| WVEKKKKIKKQNKTHAPKK [NPIPB6] | 1.29 |
| WGHRSEMRGLECGWAPGAMGGCGAGEIKSELLLPGVPTSSSGQSVHSQPDR [BCL2] | 5.52 |
| CDAQTASSATKRPENSRFTTFLSHVEAFPFNRGPSSEPRPISAIFFS [LMBR1] | 12 |
| RGGRTSNLPKRLPCPNPFITPSFRHPQPLLAQKENWGLRVGTQA [TNF] | 7.66 |
| LPAASLHAPRSSLHGSPGRWQTMLRLHQGHRGAEGPMGEERRALLGKVGFLDPRDKLFRCHNVEESTWGTTVLVQVGLGKCTS [IGHMBP2] | 3.92 |
| WWHELLASLDGQSKKKLVYFVQICHKLKAVTGEKD [PIWIL4] | 22.9 |
| YPALLPSDGHPSRGLSHTVPLRSA [CTDSP2] | 9.24 |
| SYKQRTSSILRKEML [MEOX2] | 5.43 |
| CVSSFTDSPQPFSCLKT [DPH6] | 3.83 |
| LTYFNYCIFISSFPNTNKIIL [DYNC2LI1] | 8.97 |
| YMFVWN [STKLD1] | 6.18 |
| RGKTTGRPESGPARCSGEFLISSHWGN [BPIFB2] | 0.953 |
| YDFQKTLILFLKL [PRDM1] | 8.51 |
| YAVQSSFSGA [NLRP8] | 5.86 |
| GEKSYKCKECGKPLDDPQTLMNMRKFIL [ZNF141] | 6.09 |
| WGHIQDNYTFAQPGIQMKVKMLEELVSRIDEQVHRHLDQHEVRYLQFAFRWMNNLLMREVPLRCTIRLWDTYQSEPDGFSHFH [TBC1D22A] | 11.6 |
| LLLPLGFTSQTQPLEQPDPAE [CHAT] | 6.49 |
| SSAYLGLPKCWDYRREPNAQPRGVVFRDISESEGETQD [APOC1] | 1.19 |
| LAEDPADPYLEEEEKQERESHSQPAIGSNWTTCGMDLETSTSPNTSPLPRAGPVHALP [CYFIP2] | 1.33 |
| SNIYLK [TEX12] | 0.685 |
| LTGLPTWLPT [AANAT] | 1.93 |
| EAWLPPESCSLKLGF [POU2AF1] | 0.528 |
| QQQQQQ [Gln06] | 0.198 |
| RRSPVCPVKTEIN [TM9SF2] | 0.793 |
| WTAERTMHPSAWWSLRDRSDDPRRLWRTI [LILRA2] | 6.78 |
| YWVFGLTGARMDLQRQL [GPR149] | 5.42 |
| SLEWTTAKLAPSSDRKPPCVGDCRHAK [TM9SF4] | 1.73 |
| EVGVRSPYSACCPGCAAQLDSASQHLPPRSFLLFIPIFTPKTSLSLFTPPKPLSHAGPLKPQLPTILREHPLPSLPFPALKPA [GSTM2] | 5.73 |
| YFMSFSISAADLC [DNAJC6] | 25.5 |
| SGQGPRTQCLARPLPLAFEAKASSR [AGT] | 0.949 |
| WSDCPENQKSKETRETSSLVNEPIKSRSLKKYVSVKKENRIVTVSSKTNKSKSSPLEHSESDTLGCDFEFQESIHSLSHLSYD [CEP78] | 1.3 |
| LGPVAGRPAPAPPPPTGVPAHSCGKGGEGRRARPEQGAGGRAQYLTRAAVLINVPMAGPRSEPASSATVTFSLRDGGGGSLSR [DUSP9] | 2.08 |
